Value source: patent US20210079074A1

Examples of binders with documented MFI follow.
Biological target: human MS4A4A (human, UniProt Q96JQ5 1-239)
Assay: FACS, U937-huMS4A4A, 5 ug/ml

Binder: anti-MS4A4A antibody 4A-376 (antibody, V domains shown, full human IgG) VH: QVQLVQSGSELKKPGASVKVSCKASGYIFTSYGLSWVRQAPGQGLEWMGWINTYSGVPTYAQGFTGRFVFSLDTSVSTAYLQISSLKAEDTAVYYCARSMADYWGQGTLVTVSS VL: DVVMTQSPLSLPVTLGQPASISCKSSRSLLYSDGKTYLSWFQQRPGQSPRRLIYLVSKLDSGVPDRFSGSGSGTDFTLKISRVEAEDVGVYYCWQGIDFHQTFGGGTKVEIK
MFI: 16700

Binder: anti-MS4A4A antibody 4A-381 (antibody, V domains shown) VH: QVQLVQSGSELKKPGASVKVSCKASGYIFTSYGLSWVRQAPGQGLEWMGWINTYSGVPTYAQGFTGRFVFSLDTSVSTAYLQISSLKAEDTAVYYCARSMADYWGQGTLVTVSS VL: DVVMTQSPLSLPVTLGQPASISCKSSRSLLYSQGKTYLSWFQQRPGQSPRRLIYLVSKLDSGVPDRFSGSGSGTDFTLKISRVEAEDVGVYYCWQGIDFHQTFGGGTKVEIK
MFI: 12600

Binder: anti-MS4A4A antibody 4A-302 (antibody, human IgG1, V domains shown, human IgG1/kappa) VH: QVQLVQSGAEVKKPGASVKVSCKASGYTFTNYWMQWVRQAPGQGLEWMGATHPGHGDTRYAQKFQGRVTMTRDTSTSTVYMELSSLRSEDTAVYYCAREEVYYGFRSYWYFDVWGRGTLVTVSS VL: EIVLTQSPATLSLSPGERATLSCRASESVDNYGVSFMNWYQQKPGQAPRLLIYGASNQGSGIPARFSGSGSGTDFTLTISSLEPEDFAVYYCQQSKEVPPTFGGGTKVEIK
MFI: 24400

Binder: anti-MS4A4A antibody 4A-354 (antibody, V domains shown, full human IgG) VH: QVQLVQSGSELKKPGASVKVSCKASGYIFTSYGLSWVRQAPGQGLEWMGWINTYSGVPTYAQGFTGRFVFSLDTSVSTAYLQISSLKAEDTAVYYCARTLADYWGQGTLVTVSS VL: DVVMTQSPLSLPVTLGQPASISCKSSRSLLYSAGKTYLSWFQQRPGQSPRRLIYLVSKLDSGVPDRFSGSGSGTDFTLKISRVEAEDVGVYYCWQGIDFHQTFGGGTKVEIK
MFI: 13700

Binder: anti-MS4A4A antibody 4A-360 (antibody, V domains shown, full human IgG) VH: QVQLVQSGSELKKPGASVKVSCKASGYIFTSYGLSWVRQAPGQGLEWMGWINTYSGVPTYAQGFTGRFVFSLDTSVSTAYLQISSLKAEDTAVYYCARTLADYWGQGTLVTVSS VL: DVVMTQSPLSLPVTLGQPASISCKSGQSLLYSDGKTYLSWFQQRPGQSPRRLIYLVSRLDSGVPDRFSGSGSGTDFTLKISRVEAEDVGVYYCWQGIDFHQTFGGGTKVEIK
MFI: 10300

Binder: anti-MS4A4A antibody 4A-350 (antibody, V domains shown, full human IgG) VH: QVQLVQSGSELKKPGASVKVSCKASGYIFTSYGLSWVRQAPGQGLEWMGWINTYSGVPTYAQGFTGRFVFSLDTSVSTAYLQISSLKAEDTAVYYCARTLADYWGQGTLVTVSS VL: DVVMTQSPLSLPVTLGQPASISCKSSQSLLYSDGKTYLSWFQQRPGQSPRRLIYLVSKLDSGVPDRFSGSGSGTDFTLKISRVEAEDVGVYYCWQGIDFHQTFGGGTKVEIK
MFI: 11600
